Entries annotated with measured pIC50
- target_of_assay: Receptor tyrosine-protein kinase erbB-2 (Homo sapiens)
- Sequence (P04626 whole entry): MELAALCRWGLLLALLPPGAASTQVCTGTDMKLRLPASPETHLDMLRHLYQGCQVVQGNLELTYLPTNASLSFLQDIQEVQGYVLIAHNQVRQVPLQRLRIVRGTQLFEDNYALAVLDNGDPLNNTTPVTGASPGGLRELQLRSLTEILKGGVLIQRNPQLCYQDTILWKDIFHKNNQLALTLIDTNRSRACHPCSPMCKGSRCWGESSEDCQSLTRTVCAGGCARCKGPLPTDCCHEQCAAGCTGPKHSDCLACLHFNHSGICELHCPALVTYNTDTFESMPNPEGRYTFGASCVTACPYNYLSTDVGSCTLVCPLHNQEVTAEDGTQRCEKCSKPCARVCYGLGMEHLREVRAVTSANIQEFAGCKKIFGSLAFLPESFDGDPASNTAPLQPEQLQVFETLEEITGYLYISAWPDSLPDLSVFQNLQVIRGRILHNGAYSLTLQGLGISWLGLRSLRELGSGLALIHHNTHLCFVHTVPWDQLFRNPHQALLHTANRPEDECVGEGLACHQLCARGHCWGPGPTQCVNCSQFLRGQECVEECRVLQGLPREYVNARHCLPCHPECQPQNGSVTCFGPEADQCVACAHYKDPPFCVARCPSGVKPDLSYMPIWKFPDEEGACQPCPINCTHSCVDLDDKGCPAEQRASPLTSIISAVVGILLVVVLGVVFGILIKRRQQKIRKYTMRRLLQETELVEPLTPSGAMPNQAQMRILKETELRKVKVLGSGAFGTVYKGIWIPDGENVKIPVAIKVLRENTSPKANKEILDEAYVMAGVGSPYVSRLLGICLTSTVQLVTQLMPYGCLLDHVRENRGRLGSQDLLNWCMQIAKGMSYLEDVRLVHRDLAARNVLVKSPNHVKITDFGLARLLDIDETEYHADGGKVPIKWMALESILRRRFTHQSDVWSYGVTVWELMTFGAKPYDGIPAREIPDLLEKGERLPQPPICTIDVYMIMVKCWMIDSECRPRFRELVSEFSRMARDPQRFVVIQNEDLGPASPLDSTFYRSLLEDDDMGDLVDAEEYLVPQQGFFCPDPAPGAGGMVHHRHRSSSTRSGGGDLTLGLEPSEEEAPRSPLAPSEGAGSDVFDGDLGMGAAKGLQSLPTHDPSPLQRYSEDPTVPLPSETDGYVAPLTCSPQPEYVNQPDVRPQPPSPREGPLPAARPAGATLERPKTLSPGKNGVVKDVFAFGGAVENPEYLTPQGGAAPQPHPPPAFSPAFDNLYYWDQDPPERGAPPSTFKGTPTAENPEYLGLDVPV
pIC50: −log10 of the molar value.
parameter: pIC50

In [3]: df
Out[3]:
                                    compound  observed_value
 0  OCc1nc(C#Cc2cncnc2Nc2ccc(OCc3cccc(F)c3)c(Cl)c2)cs1            6.80
 1  CC(=O)Nc1cccc(C#Cc2cncnc2Nc2ccc(OCc3cccc(F)c3)c(Cl)c2)n1 [GW794726X]            7.23
 2  Fc1cccc(COc2ccc(Nc3ncncc3C#Cc3ccccn3)cc2Cl)c1            7.26
 3  CC(=O)NCc1cccc(C#Cc2cncnc2Nc2ccc(OCc3cccc(F)c3)c(Cl)c2)c1 [GW807930X]            7.28
 4  CNC(=O)c1cccc(C#Cc2cncnc2Nc2ccc(OCc3cccc(F)c3)c(Cl)c2)c1 [GW772405X]            7.49
 5  Fc1cccc(COc2ccc(Nc3ncncc3C#Cc3ccccc3)cc2Cl)c1 [GW651576X]            6.11
 6  COC(=O)CCCC(=O)Nc1cccc(C#Cc2cncnc2Nc2ccc(OCc3cccc(F)c3)c(Cl)c2)c1            7.54
 7  NCc1cccc(C#Cc2cncnc2Nc2ccc(OCc3cccc(F)c3)c(Cl)c2)n1            7.42
 8  Fc1cccc(COc2ccc(Nc3ncncc3C#Cc3cc[nH]n3)cc2Cl)c1            7.18
 9  Nc1cccc(C#Cc2cncnc2Nc2ccc(OCc3cccc(F)c3)c(Cl)c2)c1            7.36
10   C#Cc1cncnc1Nc1ccc(OCc2cccc(F)c2)c(Cl)c1            5.42
11  CC(=O)Nc1ccc(C#Cc2cncnc2Nc2ccc(OCc3cccc(F)c3)c(Cl)c2)cc1            5.74
12  Nc1nccc(C#Cc2cncnc2Nc2ccc(OCc3cccc(F)c3)c(Cl)c2)n1 [GW799251X]            7.92
13  CC(=O)Nc1cccc(C#Cc2cncnc2Nc2ccc(OCc3cccc(F)c3)c(Cl)c2)c1 [GW703087X]            7.89
14        Fc1cccc(COc2ccc(Nc3ccncn3)cc2Cl)c1            4.68
15  OCc1cccc(C#Cc2cncnc2Nc2ccc(OCc3cccc(F)c3)c(Cl)c2)n1            7.89
16  Nc1ccc(C#Cc2cncnc2Nc2ccc(OCc3cccc(F)c3)c(Cl)c2)cc1 [GW659893X]            7.44
